test system: Aorta; assay: Nitric oxide radical scavenging activity in rat aortic strip assessed as inhibition of acetylcholine-induced vasorelaxation at 10 uM; format: functional, tissue-based
Where a SMILES comes first, the peptide text is derived from it.
Rule: inhibition under 20% gives Not fulfilled, otherwise Fulfilled.

• CC1(C)N(O)C(CCl)=[N+]([O-])C1(C)C = Not fulfilled
• N[C@@H](CCC(=O)O)C(=O)N[C@@H](CS)C(=O)NCC(=O)O (H-Glu-Cys-Gly-OH) = Not fulfilled
• CC1(C)N(O)C(C(=O)O)=[N+]([O-])C1(C)C = Fulfilled

Prompt: Has `CC1(C)N(O)C(c2ccccc2)=[N+]([O-])C1(C)C` a recorded inhibition greater than or equal to 20%?
Completion: Fulfilled

Prompt: Has `CC(C)(C)OC(=O)N[C@@H](CCCNC(=N)NC(=O)COc1ccc(C2=[N+]([O-])C(C)(C)C(C)(C)N2O)cc1)C(=O)O` a recorded inhibition greater than or equal to 20%?
Completion: Fulfilled
